# systemUnderTest: T1, Mature Pertactin (Prn) (Bordetella pertussis, strain  …)
# T1 construct: pertactin (Prn) of Bordetella pertussis, mature passenger domain; the legend on D1:p9 names 1DAB instead; also called wild-type Prn; wild type Prn
# T1 chain: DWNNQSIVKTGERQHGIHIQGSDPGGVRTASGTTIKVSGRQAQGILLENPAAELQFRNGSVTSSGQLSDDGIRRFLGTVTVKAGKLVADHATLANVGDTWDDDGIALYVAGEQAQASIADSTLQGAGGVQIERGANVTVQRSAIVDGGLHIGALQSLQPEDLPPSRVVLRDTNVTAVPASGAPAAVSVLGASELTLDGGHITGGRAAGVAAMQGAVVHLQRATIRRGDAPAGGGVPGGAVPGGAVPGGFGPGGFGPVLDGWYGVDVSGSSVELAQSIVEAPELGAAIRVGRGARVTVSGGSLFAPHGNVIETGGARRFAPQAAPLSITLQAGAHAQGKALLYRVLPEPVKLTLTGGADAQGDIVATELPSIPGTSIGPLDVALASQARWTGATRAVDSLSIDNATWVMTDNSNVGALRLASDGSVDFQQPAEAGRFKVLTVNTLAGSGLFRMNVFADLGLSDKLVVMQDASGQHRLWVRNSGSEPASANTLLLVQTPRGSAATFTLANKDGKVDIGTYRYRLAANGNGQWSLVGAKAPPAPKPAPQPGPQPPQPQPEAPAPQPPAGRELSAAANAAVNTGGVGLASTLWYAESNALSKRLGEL
# experimentalDetails: BLI; mAb (10 nM) loaded on anti-mouse IgG Fc (AMC) biosensors, dipped into Prn at 50, 25, 12.5, 6.25, 3.125 and 1.56 nM; kinetic buffer (HEPES buffer with 0.01% BSA and 0.002% Tween-20); Octet Red96; 1:1 binding model, global fit, single replicate
# conditions: both partners purified
metric: Kd

Past entries and their recorded results:
1E7 monoclonal antibody (antibody, V domains shown, 1E7 HC, whole heavy chain as printed: variable region with mouse IgG2a constant domains; a predicted N-linked glycosylation site (NPS) in CDR2 is highlighted; 1E7 LC, whole light chain as printed; full-length mouse IgG2a; measured mass 149,106 Da; also called 1E7 mAb; 1E7 Ab; source: ExpiCHO-S, transfected, purified (HiTrap Protein A); copies: 2 + 2) VH: QVQLQQPAAELARPGASVKMSCRASGYTFTTYTMHWVKQRPGQGLEWIGYINPSSGYTDYNQKFRDKITLTADKSSSTAYMQLSSLTSGDSAVYYCAREDYYGQGFTYWGQGTLVTVSR VL: IVMTQSTSSLSASLGDRVTISCRASQDISNYLNWYQQKPDGTVKLLIYYTSRLHSGVPSRFSGSGSGTDYSLTISNLEQEDIATYFCQQGNMFPWTFGGGTKLELK; < 1 nM
2B1 monoclonal antibody (antibody, V domains shown, 2B1 HC, whole heavy chain as printed: variable region with mouse IgG2a constant domains; 2B1 LC, whole light chain as printed; full-length mouse IgG2a; measured mass 149,064 Da; also called 2B1 mAb; 2B1 Ab; source: ExpiCHO-S, transfected, purified (HiTrap Protein A); copies: 2 + 2) VH: QVQLQQSGPELVKPGASVKISCKASGYSFTDYNMYWVKQSHGKSLEWIGYFDPYNGGIYYNQNFKGRATLTVDKSSSTAFMHLNSLTSEDSAVYYCARGGGWFRGFTYWGQGTLVTVSR VL: IQMTQSTSSLSASLGDRVTISCRASQDISNYLNWYQQKPDGTLNLLIYYTSRLHSGVPSRFSGSGSGTDYSLTISNLEQEDIATYFCQQGNTLPYTFGGGTKLEIK; < 1 nM

Field: next binder
Prompt line: Reported Kd for 1F2 monoclonal antibody (antibody, V domains shown, 1F2 HC, whole heavy chain as printed: variable region with mouse IgG2a constant domains; 1F2 LC, whole light chain as printed; full-length mouse IgG2a; measured mass 148,317 Da; also called 1F2 mAb; 1F2 Ab; source: ExpiCHO-S, transfected, purified (HiTrap Protein A); copies: 2 + 2) VH: EVQLVESGGGLVKPGESLKLSCAASGFTFNSYTMSWVRQTPEKRLEWVATISSGGSYTYYPDSVKGRFTISRDNAKNTLYLQMSSLKSEDTAMYYCIRVGGLFDYWGQGTTLTVSR VL: IQMIQSHKFMSTSVGDRVSITCKASQDVSTAVAWYQQKPGQSPKLLIYWASTRHTGVPDRFTGSGSGTDFTLTISGVQAEDLALYYCQQHYTTPWTFGGGTKLEIK : what is it?
Response line: < 1 nM
